Reference for the values: ChEMBL document CHEMBL1201862

Exercise: state measured GI50 for each of the compounds provided.
system: UO-31; experiment: NCI tumour cell line growth inhibition, 48 h
Active and inactive are the calls of the source. Cut-off read from the data, not from the text of the source: active = GI50 up to about 1.1 µM and inactive = higher.

- compound: "CN(C)C(=S)/N=c1\\ss/c(=N\\C(=S)N(C)C)n1-c1ccc(Cl)c(Cl)c1"
  GI50: "> 100 µM (inactive)"
- compound: "Nc1nnc2c(-c3ccccc3)n[nH]c2n1"
  GI50: "28.2 µM (inactive)"
- compound: "COc1ccc2c(c1)N1CCc3cc(OC)c(OC)cc3C1C2 (stereo unspecified)"
  GI50: "85.9 µM (inactive)"

Could you tell me GI50 for each of these compounds? They are listed below.
1. Cc1cccc(C)c1NC(=O)/C(CC(=O)CC(c1ccccc1)c1c(O)c2ccccc2oc1=O)=N/O (stereo unspecified)
2. CC(C)(C)C1=CC(=C2C=Cc3ccccc3O2)C=C(C(C)(C)C)C1=O

["> 100 µM (inactive)", "4.68 µM (inactive)"]

List reported GI50 for each of these compounds:
1. C#CCN(C(=O)C(F)(F)F)C(/C=C\C(=O)OC)(C(=O)OCC)C(=O)OCC
2. O=C1Nc2ccccc2N/C1=C\C(=O)C(F)F
3. S=C(S)N1CCN(c2cccc(Cl)c2)CC1
4. CCOc1ccc(Nc2nc(N)nc(N)c2N=O)cc1
5. COc1ccc(NC2=NCCO2)c2c1CCCC2

1. > 100 µM (inactive)
2. > 100 µM (inactive)
3. 30.8 µM (inactive)
4. 29.9 µM (inactive)
5. 53.5 µM (inactive)

Query (compound): C=CC(C)(C)NC(C(=O)N1CCC[C@H]1c1nc(-c2nc(C(=O)OCC=C(C)C)c(C)o2)c(C)o1)C(C)C (stereo partly specified) ; field requested: GI50
21.8 µM (inactive)

----------
tested on: SK-MEL-2; experiment: NCI tumour cell line growth inhibition, 48 h
The source made the active and inactive calls. Rule as the data show it: active = GI50 up to about 1.1 µM and inactive = higher.
Give your call using only these classes: active, inactive

Previously resolved entries follow.
- compound: "N#CC(c1ccccc1)N(CCOCCOCCN(C(=O)c1cccc2ccccc12)C(C#N)c1ccccc1)C(=O)c1cccc2ccccc12 (configuration not stated)"
  group label: "inactive"
- compound: "COc1cc2c(c(OC)c1)C1(CC(CC#N)C2)SCCS1 (configuration not stated)"
  group label: "inactive"
- compound: "O=[N+]([O-])c1ccc2[nH]ncc2c1Cl"
  group label: "inactive"

Dear all, I need the recorded test outcome for NCCCC1NC(=O)/C(=C(O)/C=C/C2CCC[C@@H]2CC2SCCS2)C1=O (some centres not stated) , thank you.
inactive

How was "CC1(C)C[C@H]2[C@H](O)C(CO)=C3C(=O)[C@@H](O)[C@]3(C)[C@H]2C1" classified in this test?
inactive

Hi team, can someone confirm the assay call for O=C1CC2CCN(C(=O)c3ccccc3)CC2CCN1 (configuration not stated) ?
active

Outcome logged for "Nc1nc(N)c(CCCCc2ccc([N+](=O)[O-])cc2)c(N)n1" in this assay:
inactive

Assay outcome for "COC(=O)/C(=C/c1ccc(OC)cc1)NC(=O)c1ccccc1" : what was it?
inactive

Dear colleague, could you share the recorded outcome for "COc1ccc(OC)c([N+](=O)[O-])c1-c1nc2sc(C)c(C)n2c1/C=N/N=C(N)N" when you have a moment?
inactive

# outcome recorded in this test, key = O=C1c2cc3c(cc2CC1Cc1ccc2c(c1)CCC2)CCC3 (configuration not stated)
inactive

Would you mind telling me which call this test gave CCOC(=O)C1=CN(Cc2ccccc2)C2ON=C(c3ccc(Cl)cc3)C2C1 (configuration not stated) ?
inactive

// outcome(item) with item = COc1ccc(NC(=O)CC(=O)N2N=C(C)C(/N=N\c3ccc(S(=O)(=O)c4ccc(/N=N/C5C(=O)N(C(=O)CC(=O)Nc6ccc(OC)cc6)N=C5C)cc4)cc3)C2=O)cc1 (configuration not stated)
inactive

Which outcome was entered for the compound SC1CCCN(Cc2ccccc2)C1 (configuration not stated) in this test?
inactive

Look up the recorded call for [O-][S+](CC1(O)CCCCC1)c1ccccc1 (configuration not stated) in this test.
inactive

Record request — test call for "CCCNC(=O)Cn1c(-c2ccccc2)cc2ccccc21"
inactive

Recorded test outcome, item "O=C(O)Cn1c(=O)[nH]c(=O)c2[nH]cnc21"
inactive

What outcome does the record of this test show for C=C(C)C1CC[C@@](C)(O)[C@H](C#N)C1 (some centres not stated) ?
inactive

Just curious, what result did CSc1nc(NC2OCC(OC(C)=O)C(OC(C)=O)C2OC(C)=O)c(/N=C(\C)C(C)=O)c(=O)[nH]1 (configuration not stated) get here?
inactive

How did this test come out for "CCOC(=O)C=C1CCN(C(=O)c2ccccc2)CC1" ?
active

So what was the verdict on CC(=O)c1c2c(cc3c1CC1(C3)Cc3ccc4c(c3C1=O)CCC4)CCC2 (configuration not stated) in this test?
inactive

State the result this test recorded for "Oc1ccccc1/C=N/c1ccc(-c2nc3ccccc3[nH]2)cc1" .
inactive

Please share the test call associated with CCOC(=O)C1=C(C)NC(=O)N([N+](=O)[O-])C1c1ccccc1C(F)(F)F (configuration not stated) .
inactive

----------
system: SF-268; experiment: NCI tumour cell line growth inhibition, 48 h
Active and inactive are the calls of the source. Cut-off read from the data, not from the text of the source: active = GI50 up to about 1.1 µM and inactive = higher.
measured metric: GI50

Here's what some known entries look like.
- compound: "CCC(=C/[C@H](C)C/C=C/C(C)=C/[C@@H](C)C(=O)[C@@H](C)[C@H](O)[C@@H](C)CC)/C=C/[C@H]1CC=CC(=O)O1 [CALLYSTATIN A]"
  measured metric: "GI50"
  result: "< 0.0012 µM (active)"
- compound: "O=C1CN(c2ccccc2)Cc2nc(Cl)ccc2N1"
  measured metric: "GI50"
  result: "> 100 µM (inactive)"
- compound: "Cc1cccc(/C=C2/C(=O)Nc3ccccc32)n1"
  measured metric: "GI50"
  result: "14.7 µM (inactive)"
- compound: "O=c1oc2c/c(=C\\c3ccccn3)c(=O)c3cccc1c3-2"
  measured metric: "GI50"
  result: "30.8 µM (inactive)"
- compound: "CC(=O)c1c2c(cc3c1CC1(C3)Cc3ccc4c(c3C1=O)CCC4)CCC2 (centres undefined)"
  measured metric: "GI50"
  result: "> 100 µM (inactive)"

Provide each entry's GI50 from the list below.
1. CC12CCCC3(CC(=O)C(C)(C)C3C(=O)C1)C2 (centres undefined)
2. O=c1[nH]c(=O)n(C2CC(O)C(CO)O2)cc1C#Cc1ccc(F)cc1 (centres undefined)
3. CCOc1cc2c(cc1O)/C(=N\O)C[C@@H]1[C@@H]2CC[C@]2(C)[C@@H](O)CC[C@@H]12
4. CC(C)(C)c1ccc2c(c1)C(O)(c1ccccc1)c1cc(C(C)(C)C)ccc1C2(O)C(F)(F)F (centres undefined)

1. > 100 µM (inactive)
2. > 100 µM (inactive)
3. < 0.031 µM (active)
4. 2.27 µM (inactive)

----------
system: A498; experiment: NCI tumour cell line growth inhibition, 48 h
Calls of active or inactive are those of the source. Cut-off read from the data, not from the text of the source: active = GI50 up to about 1.1 µM and inactive = higher.
Hi there, I'd appreciate the recorded GI50 for every entry that follows.

As a guide, the following entries are already answered.
- molecule: "CCN(CC)CCNc1ccc2nnn3c4ccccc4c(=O)c1c23"
  measured target: "A498"
  GI50: "11.4 µM (inactive)"
- molecule: "Clc1nc(Nc2nc3ccccc3[nH]2)nc(Cl)c1-c1ccccc1"
  measured target: "A498"
  GI50: "21.5 µM (inactive)"
- molecule: "CO/N=[N+](\\[O-])NC(C)C"
  measured target: "A498"
  GI50: "> 100 µM (inactive)"
- molecule: "CCOC(=O)c1nc2ccc(C(F)(F)F)cc2[nH]c1=O"
  measured target: "A498"
  GI50: "> 100 µM (inactive)"

Field: GI50. Fill in for each record below.
1. Nc1nnc2c(-c3ccccc3)n[nH]c2n1
2. CN(C)CCCNc1ccnc2cc([N+](=O)[O-])ccc12
3. C[C@]12O[C@@]3(C)O[C@@]3(C)[C@]3(C)O[C@]3(C)[C@@]1(C)O2
4. O=[N+]([O-])C(/C(Cl)=C(/Cl)N1CCCCC1)=C1\NCCO1
5. Cc1cccc2c1N(C(=O)/C=C\C(=O)O)C(c1c(C)[nH]c3ccccc13)C2 (stereo not drawn)
6. OC1=CN=C(c2ccccc2)Oc2ccccc21

12.9 µM (inactive)
17.2 µM (inactive)
> 100 µM (inactive)
> 100 µM (inactive)
> 100 µM (inactive)
> 100 µM (inactive)

Please look at the items below and tell me GI50 for each one, in order.
1. CN(C)[C@@H]1C(O)=C(C(=O)NCNc2nc3[nH]nnc3c(=O)[nH]2)C(=O)[C@@]2(O)C(O)=C3C(=O)c4c(O)cccc4[C@@](C)(O)[C@H]3C[C@@H]12
2. CCOC(=O)C1=CN(Cc2ccccc2)C2ON=C(c3ccc(Cl)cc3)C2C1 (stereo not drawn)
3. COc1cc2c(c(OC)c1)C1(CC(CC#N)C2)SCCS1 (stereo not drawn)

1. 92 µM (inactive)
2. > 42.6 µM (inactive)
3. > 100 µM (inactive)
